A collection of binders and their measured % positive cells
biological target: T1, CA 125/O772P on OVCAR-3 cells (human, UniProt Q8WXI7 1-14507); assay: flow cytometry, OVCAR-3 cells; Ab 2 µg/ml
T1 construct: whole, on cells
Record the value in %, omitting the unit from your answer.

See these solved cases before continuing.
Give its % positive cells value. Item: monoclonal antibody 776.1 (antibody, V domains shown) VH: EVQLQQSGPELVKPGASVKISCKASGYTFTDYNIHWVKQSHGKILEWIGYIYPYNGVSDYNQNFKSKATLIVDNSSNTAYMELRSLTSEDSAVYYCARWDFGSGYYFDYWGQGTTLTVSS VL: QIVLSQSPAILFASPGETVTMTCRASSSVIYMCWNQQKPGSSPKPWIYGTSTLASGVPTRFSGSGSGTSYSLTISRVEAEDAATYYCQQWSSNPFTFGSGTKLEI
94

Give its % positive cells value. Item: monoclonal antibody 368.1 (antibody, V domains shown, Murine hybridoma antibody) VH: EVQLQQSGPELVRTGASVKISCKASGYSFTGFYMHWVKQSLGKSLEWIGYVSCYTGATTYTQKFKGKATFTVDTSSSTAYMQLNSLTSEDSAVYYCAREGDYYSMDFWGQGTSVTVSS VL: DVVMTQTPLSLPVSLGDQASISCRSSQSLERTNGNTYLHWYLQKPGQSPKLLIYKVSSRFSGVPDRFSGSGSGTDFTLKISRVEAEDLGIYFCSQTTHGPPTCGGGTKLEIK
89

***
Give its % positive cells value. Item: monoclonal antibody 501.1 (antibody, V domains shown, Murine hybridoma antibody) VH: QIQLVQSGPELKKPGETVQISCKASGYIFTDYGMNWVKQAPGKGLKWMGCINTYTGETIYSDDFRGRFAISLETSASTAFIQINNLKNEDAATYFCARGNYRDAIDYWGQGTSVTVSS VL: DIKMTQSPSSIYASLGERVTITCKASQDIKSYLSWYQQKPWKSPKTLIYYATTLADGVPSRFSGSGSGQDYSLIINSLESDDIATYFCLHHDESPFTFGSGTKLEI
95

Give its % positive cells value. Item: monoclonal antibody 117.1 (antibody, V domains shown, Murine hybridoma antibody) VH: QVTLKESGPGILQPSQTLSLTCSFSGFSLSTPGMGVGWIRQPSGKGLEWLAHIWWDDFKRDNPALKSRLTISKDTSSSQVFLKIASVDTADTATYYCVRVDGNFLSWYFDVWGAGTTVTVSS VL: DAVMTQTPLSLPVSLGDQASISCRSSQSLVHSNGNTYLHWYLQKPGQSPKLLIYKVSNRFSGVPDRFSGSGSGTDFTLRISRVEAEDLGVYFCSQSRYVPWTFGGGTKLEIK
93
